# reported abundance fitness; entries follow
B1: POU domain, class 3, transcription factor 3, residues 408 to 463; numbered along this chain, P20264 (parent)
chain: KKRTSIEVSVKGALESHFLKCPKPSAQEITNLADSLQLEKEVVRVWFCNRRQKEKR

- Variants of: B1
- EXPERIMENT: abundance fitness (aPCA) (normalised: wild type 0, dead -1); higher = more abundant; growth selection in yeast, the domain comes from the species named
- CONDITION_LABEL: Homo sapiens

Known abundance fitness results, listed for orientation:
| SEQUENCE_CHAIN | abundance fitness |
| --- | --- |
| KKRTSIEVSVKGALESHFLKCPKMSAQEITNLADSLQLEKEVVRVWFCNRRQKEKR [P24M] | -0.867 |
| KKRTSIEVSVKGALESHFLKCPKPGAQEITNLADSLQLEKEVVRVWFCNRRQKEKR [S25G] | -0.172 |
| KKRTSIEVSVKGALESHFLKCPKPWAQEITNLADSLQLEKEVVRVWFCNRRQKEKR [S25W] | -0.885 |
| KKRTSIEVSVKGALESHFLKCPKPSAQEITNLADSHQLEKEVVRVWFCNRRQKEKR [L36H] | -0.434 |
| KKRTSIEVSVKGALESHFLKCPKPSAQEITNLADSLQLEKEVVRVWFCIRRQKEKR [N49I] | -0.151 |
| KKYTSIEVSVKGALESHFLKCPKPSAQEITNLADSLQLEKEVVRVWFCNRRQKEKR [R3Y] | -0.267 |
| KKRTSIEVSVKGALESHFLKCPKPSAQEITNLADSLYLEKEVVRVWFCNRRQKEKR [Q37Y] | -0.342 |
| KKVTSIEVSVKGALESHFLKCPKPSAQEITNLADSLQLEKEVVRVWFCNRRQKEKR [R3V] | 0.031 |

The value of abundance fitness measured for the variant KKRTSIEVSVKGALESHFLKCPKKSAQEITNLADSLQLEKEVVRVWFCNRRQKEKR [P24K] turned out to be -0.93
